Provide the reported protein stability index of each item.
B1: RHOBTB2 (parent)
chain: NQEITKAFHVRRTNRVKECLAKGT

# Variants of: B1
# Test name: protein stability index of a GFP-peptide fusion (GPS, HEK-293T) (PSI 1-6); higher = more stable;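 further: lentivirally expressed fusions sorted by FACS into six bins by GFP to DsRed ratio, PSI derived from sequencing read proportions per bin multiplied by bin number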
# Assay conditions: c terminus: a fixed tail appended

Can you share its protein stability index? I mean this variant: NQEITKAFHVDRTNRVKECLAKGT [R11D] 4.01

Can you share its protein stability index? I mean this variant: NQEITKAPHVRRTNRVKECLAKGT [F8P] 4.53

Can you share its protein stability index? I mean this variant: NQEITKAFHVRRTNRVKECLACGT [K22C] 3.3

Can you share its protein stability index? I mean this variant: NQEITKAFHVRRTNRVKECHAKGT [L20H] 2.84

Can you share its protein stability index? I mean this variant: NQERTKAFHVRRTNRVKECLAKGT [I4R] 3.72

Can you share its protein stability index? I mean this variant: NQEITKAFHVRRTNRVKECLEKGT [A21E] 3.63

Can you share its protein stability index? I mean this variant: NQEIWKAFHVRRTNRVKECLAKGT [T5W] 3

Can you share its protein stability index? I mean this variant: NQEITKAFHVHRTNRVKECLAKGT [R11H] 3.94

Can you share its protein stability index? I mean this variant: NQEITKAMHVRRTNRVKECLAKGT [F8M] 4.77

Can you share its protein stability index? I mean this variant: NQEITKAFHVRRTNRVKECFAKGT [L20F] 3.44

Can you share its protein stability index? I mean this variant: NREITKAFHVRRTNRVKECLAKGT [Q2R] 2.83
